experiment: PAMPA (parallel artificial membrane permeability assay); type: in vitro ADME; details: PAMPA, pH 6.5
Starred links: 1 amine or outer side, 2 acyl side, 3 side chain; linkers in the order of their positions; H or OH if unused. Positions of bridges follow the written chain, without caps; N, C: chain ends. Non-standard residues stand in square brackets, D forms with d. Residues, ends and D or L forms follow the SMILES beside them. *: point of attachment. NMeF = CN[C@@H](Cc1ccccc1)C(=O)O; NMeGABA = CN(CCCC(=O)[*:2])[*:1]; 3Pal = N[C@@H](Cc1cccnc1)C(=O)O; NMeL = CN[C@@H](CC(C)C)C(=O)O; NMeA = CN[C@@H](C)C(=O)O; Piperidide = C1CCN(*)CC1
Entries and their measured Papp at 18 hours, 50 µM follow.

Compound: CC(C)C[C@H]1C(=O)NCC(=O)N(C)[C@@H](Cc2ccccc2)C(=O)N(C)[C@@H](Cc2ccccc2)C(=O)N[C@@H]([C@@H](C)O)C(=O)N(C)[C@@H](C)C(=O)N[C@H](C(=O)N(C)[C@@H](Cc2ccccc2)C(=O)N(C)[C@@H](Cc2ccccc2)C(=O)N[C@@H](C)C(=O)N2CCCCC2)CC(=O)N(C)CCCC(=O)N[C@@H](C(C)C)C(=O)N1C [DP-402] ([NMeGABA]V[NMeL]G[NMeF][NMeF]T[NMeA]D[NMeF][NMeF]A-Piperidide; lactam N-9)
Papp at 18 hours, 50 µM: 24 ×10⁻⁶ cm/s

Compound: CC(C)C[C@@H]1NC(=O)[C@H](Cc2cccnc2)NC(=O)[C@@H]2CCCN2C(=O)[C@H](C)NC(=O)[C@H](CC(C)C)N(C)C(=O)[C@H](Cc2ccccc2)NC(=O)[C@H](C)N(C)C(=O)[C@H](CC(C)C)N(C)C(=O)[C@H](Cc2ccccc2)NC(=O)[C@H](C)N(C)C(=O)C[C@@H](C(=O)N(C)[C@@H](Cc2ccccc2)C(=O)N[C@@H](C)C(=O)N2CCCCC2)NC1=O [DP-599] ([NMeA]F[NMeL][NMeA]F[NMeL]AP[3Pal]LD[NMeF]A-Piperidide; lactam N-11)
Papp at 18 hours, 50 µM: 28 ×10⁻⁶ cm/s

----------
Entries and their measured microsomal CLint at 1 uM follow.
assay: Metabolic stability in human hepatic microsome; type: in vitro ADME; details: microsomes, pH 7.4; human hepatic microsome, NADPH(+); read-out: CL NADPH(+)
Starred links: 1 amine or outer side, 2 acyl side, 3 side chain; linkers in the order of their positions; H or OH if unused. Positions of bridges follow the written chain, without caps; N, C: chain ends. Non-standard residues stand in square brackets, D forms with d. Residues, ends and D or L forms follow the SMILES beside them. *: point of attachment. NMeF = CN[C@@H](Cc1ccccc1)C(=O)O; NMeβAla = CN(CCC(=O)[*:2])[*:1]; NMeL = CN[C@@H](CC(C)C)C(=O)O; NMeA = CN[C@@H](C)C(=O)O; Piperidide = C1CCN(*)CC1; Sar = CNCC(=O)O

Compound: CC[C@H](C)[C@@H]1NC(=O)[C@H](CC(C)C)NC(=O)[C@H](CC(C)C)N(C)C(=O)[C@H](CC(C)C)NC(=O)[C@H](CC(C)C)NC(=O)[C@H](Cc2ccccc2)NC(=O)[C@H](CC(C)C)NC(=O)[C@H](Cc2ccccc2)NC(=O)[C@H]([C@@H](C)O)NC(=O)CCN(C)C(=O)C[C@@H](C(=O)N2CCCCC2)NC1=O [DP-323] ([NMeβAla]TFLFLL[NMeL]LID-Piperidide; lactam N-11)
microsomal CLint at 1 uM / µL/min/mg: 182
--
Compound: CC[C@H](C)[C@@H]1NC(=O)[C@H](C(C)C)NC(=O)[C@H](Cc2ccccc2)N(C)C(=O)[C@H](C(C)C)NC(=O)[C@H](CC(C)C)N(C)C(=O)[C@H](C)NC(=O)C[C@@H](C(=O)N(C)[C@@H](Cc2ccccc2)C(=O)N(C)[C@@H](CC(C)C)C(=O)N[C@H](C(=O)N(C)[C@@H](CC(C)C)C(=O)N[C@H](C(=O)N2CCCCC2)[C@@H](C)CC)[C@@H](C)O)NC1=O [DP-913] (A[NMeL]V[NMeF]VID[NMeF][NMeL]T[NMeL]I-Piperidide; lactam N-7)
microsomal CLint at 1 uM / µL/min/mg: 30
--
Compound: CC(C)C[C@H]1C(=O)N[C@H](C(=O)N(C)[C@@H](Cc2ccccc2)C(=O)N[C@@H](C)C(=O)N2CCCCC2)CC(=O)N(C)[C@@H](C)C(=O)N(C)[C@@H](C)C(=O)N[C@@H](C(C)C)C(=O)N(C)[C@@H](C)C(=O)N(C)[C@@H](Cc2ccccc2)C(=O)N[C@@H]([C@@H](C)O)C(=O)N(C)CC(=O)N(C)[C@@H](C)C(=O)N1C [DP-349] ([NMeA][NMeA]V[NMeA][NMeF]T[Sar][NMeA][NMeL]D[NMeF]A-Piperidide; lactam N-10)
microsomal CLint at 1 uM / µL/min/mg: 13
